Settings: human gut metagenome, 24 h, 2 µM; note: call rule not given here
readout.name: Bacterial Biotransformation

Some compounds with known Bacterial Biotransformation results, for comparison:
1) CC(=O)O[C@]1(C(C)=O)CC[C@H]2[C@@H]3C=C(C)C4=CC(=O)CC[C@]4(C)[C@H]3CC[C@@]21C [MEGESTROL ACETATE] = Compound NOT metabolized
2) COc1ccc([C@@H]2Sc3ccccc3N(CCN(C)C)C(=O)[C@@H]2OC(C)=O)cc1 [DILTIAZEM] = Compound metabolized
3) CC(=O)CCCCn1c(=O)c2c(ncn2C)n(C)c1=O [PENTOXIFYLLINE] = Compound NOT metabolized
4) COc1ccc2cc([C@H](C)C(=O)O)ccc2c1 [NAPROXEN] = Compound NOT metabolized
5) CC(C)(C)N.CCC[C@H](N[C@@H](C)C(=O)N1[C@H](C(=O)O)C[C@@H]2CCCC[C@@H]21)C(=O)OCC [PERINDOPRIL ERBUMINE] = Compound metabolized
6) CC(=O)Oc1ccc(C(c2ccc(OC(C)=O)cc2)c2ccccn2)cc1 [BISACODYL] = Compound metabolized
7) COc1ccnc(C[S+]([O-])c2nc3ccc(OC(F)F)cc3[nH]2)c1OC (stereo unspecified) [PANTOPRAZOLE] = Compound metabolized
8) CNNCc1ccc(C(=O)NC(C)C)cc1 [PROCARBAZINE] = Compound NOT metabolized

Batch of 6 compounds: report Bacterial Biotransformation for each.
1. N[C@@H](Cc1ccc(N(CCCl)CCCl)cc1)C(=O)O
2. Br.COc1ccc2c(c1)[C@]13CCCC[C@@H]1[C@H](C2)N(C)CC3.O [DEXTROMETHORPHAN HYDROBROMIDE]
3. CC(=O)O[C@H]1C(=O)[C@@]2(C)[C@H]([C@H](OC(=O)c3ccccc3)[C@]3(O)C[C@H](OC(=O)[C@H](O)[C@@H](NC(=O)c4ccccc4)c4ccccc4)C(C)=C1C3(C)C)[C@]1(OC(C)=O)CO[C@@H]1C[C@@H]2O [PACLITAXEL]
4. CC(NC(C)(C)C)C(=O)c1cccc(Cl)c1 (stereo unspecified) [BUPROPION]
5. Cc1cc2c(s1)Nc1ccccc1N=C2N1CCN(C)CC1 [OLANZAPINE]
6. CCOc1ccccc1OCCN[C@H](C)Cc1ccc(OC)c(S(N)(=O)=O)c1.Cl [TAMSULOSIN HYDROCHLORIDE]

1: Compound metabolized; 2: Compound metabolized; 3: Compound NOT metabolized; 4: Compound NOT metabolized; 5: Compound NOT metabolized; 6: Compound NOT metabolized

Batch of 2 compounds: report Bacterial Biotransformation for each.
1. CN(C)CCc1c[nH]c2ccc(CS(=O)(=O)N3CCCC3)cc12 [ALMOTRIPTAN]
2. c1ccc2[nH]c(-c3cscn3)nc2c1 [THIABENDAZOLE]

Compound metabolized
Compound NOT metabolized

Origin of values: ChEMBL document CHEMBL5724914
